Test system: Bromodomain adjacent to zinc finger domain protein 2B (Homo sapiens)
Method summary: qHTS Assay for Inhibitors of BAZ2B; also: nearly all actives have a fitted effect of over 60% in size
Measurement conditions: AlphaScreen BAZ2B-H3K14Ac peptide displacement; series mostly up to 114 µM
The whole screen tested about 360,000 compounds, of which about 16,000 (4.4%) were called active. Another 9% or so got no clear call; they are omitted. Calls follow the shape of the dose curve; as a rule, active = well fitted inhibition curve with a large enough effect; inconclusive = small, poorly fitted or top-dose-only effect; inactive = no such curve, though single readings can be large or run the other way. The sample holds actives, similar compounds and a random draw of the others, so the mix is not that of the screen.
Write down one outcome, taken from active, inactive

Completed entries (count: 5):
CCC(=O)Nc1ccc2nc(SCC(=O)N3CCc4ccccc43)sc2c1 ... inactive
CCOC(=O)c1ccc(NC(=O)CCS(=O)(=O)c2ccc(C)cc2)cc1 ... inactive
Cc1cc(C)c(NC(=O)CCc2c(C)nc3c(c(C)nn3C(C)(C)C)c2C)c(C)c1 ... inactive
Cc1ccc(NC(=O)Nc2sc3nc4n(c(=O)c3c2C)CCC(C)CC4)c(Cl)c1 (stereo unspecified) ... inactive
CN(C)c1nc(-c2cccnc2)nc(-c2ccc(Cl)cc2)c1C#N ... inactive

Consider now this further compound.
stdin: Just curious, what result did CCCCN1CC(c2nc3ccccc3n2CCCCOc2ccc(C)cc2C)CC1=O (stereo unspecified) get here?
stdout: inactive

====

Test system: Bromodomain adjacent to zinc finger domain protein 2B (Homo sapiens) (UniProt Q9UIF8)
Sequence (Q9UIF8 whole entry, looked up, the tested form may be a part): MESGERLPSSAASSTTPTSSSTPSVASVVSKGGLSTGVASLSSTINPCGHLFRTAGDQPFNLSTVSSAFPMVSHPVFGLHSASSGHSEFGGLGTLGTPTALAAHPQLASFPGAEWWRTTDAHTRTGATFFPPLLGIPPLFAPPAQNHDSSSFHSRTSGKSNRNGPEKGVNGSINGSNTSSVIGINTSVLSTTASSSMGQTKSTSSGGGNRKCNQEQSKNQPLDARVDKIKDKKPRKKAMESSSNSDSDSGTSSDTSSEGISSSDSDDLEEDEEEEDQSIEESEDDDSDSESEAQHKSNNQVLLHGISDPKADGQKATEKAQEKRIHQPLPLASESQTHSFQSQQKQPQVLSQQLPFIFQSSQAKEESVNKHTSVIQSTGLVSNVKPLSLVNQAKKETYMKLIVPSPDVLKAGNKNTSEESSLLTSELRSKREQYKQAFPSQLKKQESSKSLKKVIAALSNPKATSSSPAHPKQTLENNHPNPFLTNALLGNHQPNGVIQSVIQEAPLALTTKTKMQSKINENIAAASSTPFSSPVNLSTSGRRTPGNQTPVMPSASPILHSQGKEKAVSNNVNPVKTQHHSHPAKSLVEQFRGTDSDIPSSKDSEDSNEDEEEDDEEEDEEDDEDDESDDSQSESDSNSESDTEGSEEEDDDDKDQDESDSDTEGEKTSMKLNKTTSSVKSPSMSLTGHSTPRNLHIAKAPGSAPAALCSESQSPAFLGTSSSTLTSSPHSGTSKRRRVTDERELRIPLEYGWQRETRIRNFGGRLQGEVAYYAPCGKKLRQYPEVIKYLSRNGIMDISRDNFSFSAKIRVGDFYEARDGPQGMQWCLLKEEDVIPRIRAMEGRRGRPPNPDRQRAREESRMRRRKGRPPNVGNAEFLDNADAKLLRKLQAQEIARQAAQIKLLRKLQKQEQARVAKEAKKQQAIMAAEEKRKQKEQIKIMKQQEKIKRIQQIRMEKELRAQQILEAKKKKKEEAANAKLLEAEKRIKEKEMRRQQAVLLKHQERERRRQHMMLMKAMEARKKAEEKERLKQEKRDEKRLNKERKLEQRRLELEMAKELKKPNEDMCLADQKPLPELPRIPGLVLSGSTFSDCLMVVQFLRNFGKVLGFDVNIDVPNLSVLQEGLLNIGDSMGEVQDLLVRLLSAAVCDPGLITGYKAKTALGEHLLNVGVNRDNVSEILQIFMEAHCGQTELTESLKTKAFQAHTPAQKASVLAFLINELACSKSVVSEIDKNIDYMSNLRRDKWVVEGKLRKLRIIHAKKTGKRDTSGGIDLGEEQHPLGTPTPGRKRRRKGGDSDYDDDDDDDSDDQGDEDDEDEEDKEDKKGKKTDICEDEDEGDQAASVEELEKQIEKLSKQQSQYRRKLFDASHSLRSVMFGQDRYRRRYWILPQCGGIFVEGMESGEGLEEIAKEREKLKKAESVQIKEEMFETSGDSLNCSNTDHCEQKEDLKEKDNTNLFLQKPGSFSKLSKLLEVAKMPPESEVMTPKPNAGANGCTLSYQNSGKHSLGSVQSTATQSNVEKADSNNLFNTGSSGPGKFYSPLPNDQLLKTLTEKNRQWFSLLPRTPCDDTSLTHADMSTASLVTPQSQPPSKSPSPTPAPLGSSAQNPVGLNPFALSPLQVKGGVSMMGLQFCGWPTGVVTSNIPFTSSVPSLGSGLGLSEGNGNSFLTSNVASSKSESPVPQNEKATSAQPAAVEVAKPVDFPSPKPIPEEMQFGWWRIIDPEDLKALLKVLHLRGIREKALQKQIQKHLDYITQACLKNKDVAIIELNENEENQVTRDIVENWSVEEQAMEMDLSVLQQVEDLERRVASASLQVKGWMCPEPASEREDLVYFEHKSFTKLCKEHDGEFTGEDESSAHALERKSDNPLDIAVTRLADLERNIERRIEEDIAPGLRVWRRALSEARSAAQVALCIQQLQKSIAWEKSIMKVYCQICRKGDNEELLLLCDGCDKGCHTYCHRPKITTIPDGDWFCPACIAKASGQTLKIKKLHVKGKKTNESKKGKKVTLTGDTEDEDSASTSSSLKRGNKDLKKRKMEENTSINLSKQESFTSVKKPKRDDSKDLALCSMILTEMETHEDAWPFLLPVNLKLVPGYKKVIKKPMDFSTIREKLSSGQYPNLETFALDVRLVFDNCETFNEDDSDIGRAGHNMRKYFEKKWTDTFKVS
Method summary: qHTS Assay for Inhibitors of BAZ2B; also: nearly all actives have a fitted effect of over 60% in size
Measurement conditions: AlphaScreen BAZ2B-H3K14Ac peptide displacement; series mostly up to 114 µM
Text: BAZ2B (bromodomain adjacent to zinc finger domain, 2B) belongs to a family of ubiquitously expressed bromodomain containing proteins, which biological function has not yet been elucidated. […] Yasgar, et al. Compound Management for Quantitative High-Throughput Screening. […] Inglese, et al. Quantitative high-throughput screening: a titration-based approach that efficiently identifies biological activities in large chemical libraries. […]
Among all 360,000 compounds or so, about 16,000 (4.4%) were called active. Roughly 9% stayed inconclusive and do not appear here. Calls follow the shape of the dose curve; as a rule, active = well fitted inhibition curve with a large enough effect; inconclusive = small, poorly fitted or top-dose-only effect; inactive = no such curve, though single readings can be large or run the other way. The sample as a whole holds a higher share of actives than the screen did.
Write down one outcome, taken from true for active, false for inactive

Completed entries (count: 3):
C=CCN(CC=C)CCOc1ccccc1[N+](=O)[O-] ... true
Cc1ccc(CN2CCC(CNC(=O)c3cnn(-c4ccc(C)cc4)c3C3CCN(C(=O)OC(C)(C)C)CC3)CC2)cc1 ... false
Cc1ccc2nc(COc3ccccc3NC(=O)Nc3ccc(F)c(Cl)c3)cc(=O)n2c1 ... false

stdin: Just curious, what result did COc1cc(C)cc(CN2CCC(Cc3ccccc3)CC2)c1O get here?
stdout: false

stdin: Further, for CC(C)Cn1c(=O)c2ccccc2n2c(CCC(=O)N3CCN(c4cccc(Cl)c4)CC3)nnc12 ?
stdout: false

stdin: Further, for O=C(COc1ccccc1[N+](=O)[O-])NC1CC1 ?
stdout: false

====

Test system: Bromodomain adjacent to zinc finger domain protein 2B (Homo sapiens) (UniProt Q9UIF8)
Method summary: qHTS Assay for Inhibitors of BAZ2B; also: nearly all actives have a fitted effect of over 60% in size
Measurement conditions: AlphaScreen BAZ2B-H3K14Ac peptide displacement; series mostly up to 114 µM
In all, about 360,000 compounds went through this assay and about 16,000 (4.4%) were called active. Roughly 9% stayed inconclusive and do not appear here. Calls follow the shape of the dose curve; as a rule, active = well fitted inhibition curve with a large enough effect; inconclusive = small, poorly fitted or top-dose-only effect; inactive = no such curve, though single readings can be large or run the other way. Shown is part of a subset that was picked to be rich in actives.
Write down one outcome, taken from true for active, false for inactive

stdin: Just curious, what result did CCc1nnc(SCc2c(F)cccc2Cl)c2cc3sccc3n12 get here?
stdout: false

Numbers sourced from PubChem BioAssay AID504333.
